target: Mitogen-activated protein kinase kinase kinase 3 (Homo sapiens) (UniProt Q99759); experiment: blockers of MEK5-MEKK3 PB1 association – biochemical, bead multiplex flow cytometry, single concentration, wildtype, confirmation (AID 1894); conditions: Alexa488-MEK5 binding to MEKK3, at 10 µM, hits give low values;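 also: 100% = DMSO only wells and 0% = binding blocked by excess unlabeled MEK5; lower values mean stronger disruption of MEK5 binding to MEKK3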
Sequence (Q99759 whole entry, looked up): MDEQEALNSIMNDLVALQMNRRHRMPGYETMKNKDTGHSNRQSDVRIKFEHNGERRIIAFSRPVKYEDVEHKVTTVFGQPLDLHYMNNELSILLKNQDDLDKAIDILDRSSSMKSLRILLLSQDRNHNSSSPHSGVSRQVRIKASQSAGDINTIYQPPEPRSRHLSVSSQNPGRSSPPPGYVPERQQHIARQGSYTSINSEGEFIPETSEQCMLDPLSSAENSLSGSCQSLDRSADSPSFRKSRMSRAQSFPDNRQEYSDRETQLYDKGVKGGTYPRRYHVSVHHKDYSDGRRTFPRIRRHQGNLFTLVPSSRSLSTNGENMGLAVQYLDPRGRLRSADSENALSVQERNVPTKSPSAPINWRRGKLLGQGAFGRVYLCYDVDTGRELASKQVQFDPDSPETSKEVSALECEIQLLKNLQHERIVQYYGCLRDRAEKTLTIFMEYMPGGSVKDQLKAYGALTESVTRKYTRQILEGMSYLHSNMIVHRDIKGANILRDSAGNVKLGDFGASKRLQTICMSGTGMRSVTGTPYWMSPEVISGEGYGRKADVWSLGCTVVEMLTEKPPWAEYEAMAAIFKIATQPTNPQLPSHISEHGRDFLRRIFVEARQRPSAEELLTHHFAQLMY
Out of some 5,900 compounds screened, about 100 (1.7%) were called active. Shown is part of a subset that was picked to be rich in actives.
endpoint: binding response (% of control) (%)
The reply should be a number in %, with the unit left off.

Record excerpt, results attached:
> print(dat)
                                 cpd.smiles                         endpoint  test.result
1  COc1ccc(NC(=O)Cn2nnc(C(=O)NCCc3ccc(OC)c(OC)c3)c2N)cc1  binding response (% of control)          102
2  O=C(NCCN1CCOCC1)[C@H](Cc1ccccc1)N1C(=O)c2ccccc2C1=O  binding response (% of control)          100
3       O=C(c1ccc(Br)o1)N(c1ccccn1)C1CCCCC1  binding response (% of control)           98

I am curious: what binding response (% of control) value has been reported for O=C(NC1CCN(Cc2ccccc2)CC1)c1cc(Br)c(Br)[nH]1 ?
110

Would you kindly repeat that for Cc1cccc(-c2ncc(CN3CCC(CO)(CCCc4ccccc4)CC3)cn2)c1 ?
107
